Documented Emax across a set of compounds
target: F508delCFTR (Homo sapiens, UniProt P13569, DEL508-508)
Construct: expressed in transfected cells; host or cells: CFBE41o- human lung-derived epithelial cells (CFBE4lo-F508delCFTR-HRP), doxycycline-inducible
Sequence (P13569 with tags, fused parts or gaps DEL508-508): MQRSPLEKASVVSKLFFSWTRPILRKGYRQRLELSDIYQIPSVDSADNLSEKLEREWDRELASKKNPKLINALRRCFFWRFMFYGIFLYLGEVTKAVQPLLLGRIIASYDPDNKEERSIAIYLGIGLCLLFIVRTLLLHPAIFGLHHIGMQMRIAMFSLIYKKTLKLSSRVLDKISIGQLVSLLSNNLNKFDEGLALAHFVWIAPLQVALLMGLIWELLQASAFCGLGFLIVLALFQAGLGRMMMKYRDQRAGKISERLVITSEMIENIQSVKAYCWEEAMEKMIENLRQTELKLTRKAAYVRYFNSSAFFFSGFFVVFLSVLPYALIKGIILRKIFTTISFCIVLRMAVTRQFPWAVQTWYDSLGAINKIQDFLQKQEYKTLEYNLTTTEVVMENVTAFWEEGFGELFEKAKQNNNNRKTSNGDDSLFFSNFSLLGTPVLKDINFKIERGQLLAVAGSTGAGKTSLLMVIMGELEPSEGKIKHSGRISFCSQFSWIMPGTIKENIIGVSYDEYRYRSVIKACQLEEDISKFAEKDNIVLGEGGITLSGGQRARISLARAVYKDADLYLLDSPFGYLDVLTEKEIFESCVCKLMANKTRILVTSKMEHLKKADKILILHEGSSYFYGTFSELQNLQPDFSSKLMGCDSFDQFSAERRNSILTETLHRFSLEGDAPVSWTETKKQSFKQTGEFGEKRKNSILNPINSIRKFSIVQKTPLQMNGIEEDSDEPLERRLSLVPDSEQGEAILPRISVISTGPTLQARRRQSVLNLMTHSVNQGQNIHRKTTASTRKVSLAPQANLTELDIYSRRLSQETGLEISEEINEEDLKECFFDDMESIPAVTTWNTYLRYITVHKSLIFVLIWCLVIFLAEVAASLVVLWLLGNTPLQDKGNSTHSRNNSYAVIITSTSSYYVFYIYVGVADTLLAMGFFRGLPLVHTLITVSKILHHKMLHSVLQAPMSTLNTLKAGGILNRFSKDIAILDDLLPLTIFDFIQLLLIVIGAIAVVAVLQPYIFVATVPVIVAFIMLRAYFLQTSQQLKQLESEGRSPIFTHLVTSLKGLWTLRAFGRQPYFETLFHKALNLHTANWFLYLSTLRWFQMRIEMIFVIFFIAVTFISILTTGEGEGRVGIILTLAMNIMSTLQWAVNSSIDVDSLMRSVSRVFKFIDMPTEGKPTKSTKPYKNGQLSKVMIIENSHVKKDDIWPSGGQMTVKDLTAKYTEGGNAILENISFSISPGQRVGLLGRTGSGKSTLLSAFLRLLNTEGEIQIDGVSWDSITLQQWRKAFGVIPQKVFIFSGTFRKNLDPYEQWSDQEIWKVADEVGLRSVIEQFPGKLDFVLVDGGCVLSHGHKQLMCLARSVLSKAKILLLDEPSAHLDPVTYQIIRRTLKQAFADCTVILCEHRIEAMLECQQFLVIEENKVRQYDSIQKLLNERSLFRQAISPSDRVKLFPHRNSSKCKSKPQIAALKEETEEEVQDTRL
assayProcedure: Cell Surface Expression-Horse Radish Peroxidase (CSE-HRP) Assay;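 on Maximum % activity (without co-corrector): percent of the 2 µM on-plate positive control corrector response above DMSO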
Assay type: cell-based
measurementContext: without co-corrector; maximum at any tested concentration, normalized to on-plate positive control; read-out: Maximum % activity (without co-corrector)

compound	target	Emax
COc1ccc(C(C)(C)C)cc1CN[C@H]1[C@H](C(C)(C)C)[C@@H](C(=O)O)N(C(=O)Cc2c[nH]cn2)[C@H]1c1ccccc1 [Example I-98]	F508delCFTR (Homo sapiens, UniProt P13569, DEL508-508)	< 100%
COc1nc(C(C)(C)C)ccc1CN[C@H]1[C@H](C(C)(C)C)[C@@H](C(=O)O)N(C(=O)[C@@H]2CCCCO2)[C@H]1c1cccnc1N(C)C [Example I-235]	F508delCFTR (Homo sapiens, UniProt P13569, DEL508-508)	100 to 200%
COc1ccc(C(C)(C)C)cc1CN[C@H]1[C@H](C(C)(C)C)[C@@H](C(=O)O)N(C(=O)c2ccccc2)[C@H]1c1ccccc1 [Example I-65]	F508delCFTR (Homo sapiens, UniProt P13569, DEL508-508)	100 to 200%
COc1cc(C(F)(F)F)ccc1CN[C@@H]1[C@@H](C(C)(C)C)[C@H](C(=O)O)N(C(=O)C2C3COCC32)[C@@H]1c1ccccc1N(C)C (mixture of isomers) [Example I-24]	F508delCFTR (Homo sapiens, UniProt P13569, DEL508-508)	> 200%
COc1ccc(C(C)(C)C)cc1CN[C@H]1[C@H](C(C)(C)C)[C@@H](C(=O)O)N(C(=O)c2cc(C#N)ccc2OC)[C@H]1c1ccccc1 [Example I-90]	F508delCFTR (Homo sapiens, UniProt P13569, DEL508-508)	100 to 200%
CCCC1(O)CCC(C(=O)N2C(C(=O)O)C(C(C)(C)C)C(NCc3cc(C(C)(C)C)ccc3OC)C2c2ccccc2)CC1 (stereo not drawn) [Example 35]	F508delCFTR (Homo sapiens, UniProt P13569, DEL508-508)	> 200%

----------
target: F508delCFTR (Homo sapiens, UniProt P13569, DEL508-508)
Construct: expressed in transfected cells; host or cells: CFBE41o- human lung-derived epithelial cells (CFBE4lo-F508delCFTR-HRP), doxycycline-inducible
assayProcedure: Cell Surface Expression-Horse Radish Peroxidase (CSE-HRP) Assay
Type: cell-based
measurementContext: CSE-HRP; with co-corrector (2 μM of 3-[(2R,4R)-4-({[1-(2,2-difluoro-1,3-benzodioxol-5-yl)cyclopropyl]carbonyl}amino)-7-methoxy-3,4-dihydro-2H-chromen-2-yl]benzoic acid); read-out: EC50 (with co-corrector)
pEC50: −log10 of the molar value.

compound	pEC50
COc1cc(Cl)ccc1CN[C@@H]1[C@@H](C(C)(C)C)[C@H](C(=O)O)N(C(=O)[C@@H]2CCC[C@@H](OC)C2)[C@@H]1c1ccccc1 (racemic) [II-38]	5.00 to 6.00
COc1ccc(C(F)(F)F)cc1OCCN[C@H]1[C@H](C(C)(C)C)[C@@H](C(=O)O)N(C(=O)OC(C)C)[C@H]1c1cccnc1OC(C)C [Example I-309]	5.00 to 6.00
COc1ccc(-c2cccnc2C)cc1CN[C@H]1[C@H](C(C)(C)C)[C@@H](C(=O)O)N(C(=O)C2CCCCC2)[C@H]1c1ccccc1 [II-288]	5.00 to 6.00
